target: Cannabinoid receptor 2 (Homo sapiens, UniProt P34972); test: Agonist activity at recombinant human CB2R expressed in CHOK1 cells assessed as inhibition of NKH477-stimulated intracellular cAMP levels after 30 mins by chemiluminescent detection based cAMP Hunter assay; format: functional, cell-based, CHO-K1
Sequence (P34972 whole entry): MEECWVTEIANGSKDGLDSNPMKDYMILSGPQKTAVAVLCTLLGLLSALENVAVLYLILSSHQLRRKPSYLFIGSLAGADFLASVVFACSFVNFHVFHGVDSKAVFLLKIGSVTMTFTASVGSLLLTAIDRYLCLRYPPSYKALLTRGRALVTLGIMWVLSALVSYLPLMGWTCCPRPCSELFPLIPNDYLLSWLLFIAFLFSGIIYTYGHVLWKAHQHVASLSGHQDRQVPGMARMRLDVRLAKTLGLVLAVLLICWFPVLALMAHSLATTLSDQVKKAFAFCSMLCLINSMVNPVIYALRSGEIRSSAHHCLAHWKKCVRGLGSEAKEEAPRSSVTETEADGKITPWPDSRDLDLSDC
pEC50: −log10 of the molar value.
Output 1 (yes) for pEC50 not less than 7; output 0 (no) otherwise.

compound	answerLabel
CN1N=CC2C1C(O)=C(C(=O)NC13CC4CC(CC(C4)C1)C3)C(=O)N2CCCCF (stereo not given)	1 (yes)
CCCCCN1C(=O)C(C(=O)NC23CC4CC(CC(C4)C2)C3)=C(O)C2C1C=NN2C (stereo not given)	0 (no)

Now, please, on to the next compound.
Prompt: Hi team, for CCCC(C)(C)c1ccc2c(c1)OC(C)(C)[C@@H]1CC=C(C)C[C@@H]21 , is the recorded pEC50 at or above 7?
Response: 0 (no)

* * *

assay: Kinetic solubility of the compound at pH 7.4 by HPLC-UV method; type: physicochemical; details: buffer, read-out: Kinetic_solubility
measuredEndpoint: solubility kinetic (µg/mL)
Write the value in µg/mL as a bare number.

As a guide, the following entries are already answered.
compound	solubility kinetic, µg/mL
CN1N=CC2C1C(O)=C(C(=O)NC13CC4CC(CC(O)(C4)C1)C3)C(=O)N2CCCCF (centres undefined)	15.1
CCCCn1c(=O)c(C(=O)NC23CC4CC(CC(C4)C2)C3)c(O)c2nn(CCO)cc21	2.1
Cn1cc2c(n1)c(O)c(C(=O)NC13CC4CC(CC(C4)C1)C3)c(=O)n2CCCCF	0.8
CCCCn1c(=O)c(C(=O)NC23CC4CC(CC(C4)C2)C3)c(O)c2nn(C)cc21	1.9
CCCCn1c(=O)c(C(=O)NC23CC4CC(CC(O)(C4)C2)C3)c(O)c2nn(C)cc21	20.9
CCCn1c(=O)c(C(=O)NC23CC4CC(CC(C4)C2)C3)c(O)c2nn(CCO)cc21	3.9

Prompt: Hello, please tell me recorded solubility kinetic for this one: CCCCCn1c(=O)c(C(=O)NC23CC4CC(CC(C4)C2)C3)c(O)c2nn(CCO)cc21
Response: 0.7

Prompt: Hello, please tell me recorded solubility kinetic for this one: CCCCCn1c(=O)c(C(=O)NC23CC4CC(CC(O)(C4)C2)C3)c(O)c2nn(CCO)cc21
Response: 15

Prompt: Hello, please tell me recorded solubility kinetic for this one: CCCCCN1C(=O)C(C(=O)NC23CC4CC(CC(C4)C2)C3)=C(O)C2C1C=NN2C (centres undefined)
Response: 1.08

* * *

Items are presented alongside their recorded EC50.
target: Cannabinoid receptor 2 (Homo sapiens, UniProt P34972); test: Inverse agonist activity at recombinant human CB2R expressed in CHOK1 cells assessed as increase in NKH477-stimulated intracellular cAMP levels after 30 mins by chemiluminescent based cAMP Hunter assay; type: functional, cell-based, CHO-K1
Write the value in nM as a bare number.

molSmiles	EC50 (nM)
CCCCCn1c(=O)c(C(=O)NC23CC4CC(CC(C4)C2)C3)c(O)c2nn(C)cc21	1180
COc1ccc(C(=O)c2c(C)n(CCN3CCOCC3)c3cc(I)ccc23)cc1	3150

As a next step, examine the compound that follows.
Prompt: Hello, please tell me recorded EC50 for this one: Cn1cc2c(n1)c(O)c(C(=O)NC13CC4CC(CC(O)(C4)C1)C3)c(=O)n2CCCCF
Response: 590

* * *

Items are presented alongside their recorded pKa.
assay: Ionization Constants, pKa of the compound by UV-vis spectra analysis; format: physicochemical

As a guide, the following entries are already answered.
molecule	pKa
CCCCn1c(=O)c(C(=O)NC23CC4CC(CC(O)(C4)C2)C3)c(O)c2nn(C)cc21	7.9
CCCCn1c(=O)c(C(=O)NC23CC4CC(CC(C4)C2)C3)c(O)c2nn(C)cc21	8.6
CCCCN1C(=O)C(C(=O)NC23CC4CC(CC(C4)C2)C3)=C(O)C2C1C=NN2C (stereo not given)	8

Prompt: Hello, please tell me recorded pKa for this one: CCCCN1C(=O)C(C(=O)NC23CC4CC(CC(O)(C4)C2)C3)=C(O)C2C1C=NN2C (stereo not given)
Response: 7.56

Prompt: Hello, please tell me recorded pKa for this one: Cn1cc2c(n1)c(O)c(C(=O)NC13CC4CC(CC(O)(C4)C1)C3)c(=O)n2CCCCF
Response: 7.97

* * *

biological target: Cannabinoid receptor 2 (Homo sapiens, UniProt P34972); experiment: Inverse agonist activity at recombinant human CB2R expressed in CHOK1 cells assessed as increase in NKH477-stimulated intracellular cAMP levels after 30 mins by chemiluminescent based cAMP Hunter assay; type: functional, cell-based, CHO-K1
pEC50: −log10 of the molar value.
Output Satisfied for pEC50 not less than 6; output Not satisfied otherwise.

molSmiles	answerLabel
CCCCn1c(=O)c(C(=O)NC23CC4CC(CC(C4)C2)C3)c(O)c2nn(C)cc21	Satisfied
CC(=O)OCCCCn1c(=O)c(C(=O)NC23CC4CC(CC(C4)C2)C3)c(O)c2nn(C)cc21	Not satisfied

Prompt: Hi team, for Cn1cc2c(n1)c(O)c(C(=O)NC13CC4CC(CC(C4)C1)C3)c(=O)n2CCCCF , is the recorded pEC50 at or above 6?
Response: Satisfied

* * *

target: Cannabinoid receptor 2 (Homo sapiens); experiment: Displacement of [3H]-CP-55,940 from recombinant human CB2R expressed in HEK293 cell membranes
measuredEndpoint: log10(Ki) (log10 of the value in nM)
// do not treat as linear: log10 of Ki, unit nM

As a guide, the following entries are already answered.
compound	log10(Ki)
CCCCCN1C(=O)C(C(=O)NC23CC4CC(CC(C4)C2)C3)=C(O)C2C1C=NN2C (configuration not stated)	-0.05
CCCCCn1c(=O)c(C(=O)NC23CC4CC(CC(O)(C4)C2)C3)c(O)c2nn(CCO)cc21	1.76

Prompt: Hello, please tell me recorded log10(Ki) for this one: CC(=O)OCCCCn1c(=O)c(C(=O)NC23CC4CC(CC(C4)C2)C3)c(O)c2nn(C)cc21
Response: 1.24

Prompt: Hello, please tell me recorded log10(Ki) for this one: CCCn1c(=O)c(C(=O)NC23CC4CC(CC(C4)C2)C3)c(O)c2nn(CCOC(C)=O)cc21
Response: 2.27

Prompt: Hello, please tell me recorded log10(Ki) for this one: CCCn1c(=O)c(C(=O)NC23CC4CC(CC(C4)C2)C3)c(O)c2nn(CCO)cc21
Response: 2.20

Prompt: Hello, please tell me recorded log10(Ki) for this one: Cn1cc2c(n1)c(O)c(C(=O)NC13CC4CC(CC(O)(C4)C1)C3)c(=O)n2CCCCF
Response: 0.79

Prompt: Hello, please tell me recorded log10(Ki) for this one: Cn1cc2c(n1)c(O)c(C(=O)NC13CC4CC(CC(C4)C1)C3)c(=O)n2CCCCF
Response: 0.32

Prompt: Hello, please tell me recorded log10(Ki) for this one: CN1N=CC2C1C(O)=C(C(=O)NC13CC4CC(CC(O)(C4)C1)C3)C(=O)N2CCCCF (configuration not stated)
Response: 1.28

Prompt: Hello, please tell me recorded log10(Ki) for this one: CCCCn1c(=O)c(C(=O)NC23CC4CC(CC(C4)C2)C3)c(O)c2nn(CCO)cc21
Response: 1.26

Prompt: Hello, please tell me recorded log10(Ki) for this one: Cn1cc2c(n1)c(O)c(C(=O)NC13CC4CC(CC(C4)C1)C3)c(=O)n2CCCCO
Response: 1.16

* * *

test: Kinetic solubility of the compound at pH 7.4 by HPLC-UV method; assay type: physicochemical; details: buffer, read-out: Kinetic_solubility
Output 1 (yes) for solubility kinetic not less than 3 µg/mL; output 0 (no) otherwise.

Here are 4 molecules together with their reported answers.
molecule	answerLabel
Cn1cc2c(n1)c(O)c(C(=O)NC13CC4CC(CC(C4)C1)C3)c(=O)n2CCCCO	1 (yes)
CCCCCn1cc(C(=O)NC23CC4CC(CC(C4)C2)C3)c(=O)c2cc(C(C)C)ccc21	0 (no)
CN1N=CC2C1C(O)=C(C(=O)NC13CC4CC(CC(C4)C1)C3)C(=O)N2CCCCF (stereo not given)	0 (no)
CCCCN1C(=O)C(C(=O)NC23CC4CC(CC(C4)C2)C3)=C(O)C2C1C=NN2C (stereo not given)	0 (no)

Now, please, on to the next molecule.
Prompt: Hi team, for CCCCN1C(=O)C(C(=O)NC23CC4CC(CC(O)(C4)C2)C3)=C(O)C2C1C=NN2C (stereo not given) , is the recorded solubility kinetic at or above 3 µg/mL?
Response: 1 (yes)

* * *

Items are presented alongside their recorded logP.
test: Lipophilicity, log P of the compound by UV-vis spectra analysis; format: physicochemical; settings: octanol/water
The reply should be a number, written without any unit.

As a guide, the following entries are already answered.
compound	measuredEndpoint	numericValue
CCCCn1c(=O)c(C(=O)NC23CC4CC(CC(O)(C4)C2)C3)c(O)c2nn(C)cc21	logP	4.08
CCCCN1C(=O)C(C(=O)NC23CC4CC(CC(O)(C4)C2)C3)=C(O)C2C1C=NN2C (stereo not given)	logP	4.85

Prompt: Hello, please tell me recorded logP for this one: CCCCN1C(=O)C(C(=O)NC23CC4CC(CC(C4)C2)C3)=C(O)C2C1C=NN2C (stereo not given)
Response: 5.3

Prompt: Hello, please tell me recorded logP for this one: CCCCn1c(=O)c(C(=O)NC23CC4CC(CC(C4)C2)C3)c(O)c2nn(C)cc21
Response: 5.3

Prompt: Hello, please tell me recorded logP for this one: Cn1cc2c(n1)c(O)c(C(=O)NC13CC4CC(CC(O)(C4)C1)C3)c(=O)n2CCCCF
Response: 3.15
